Measured GI50, listed per entry for reference.
Tested on: SN12C
assay: NCI tumour cell line growth inhibition, 48 h
Activity calls are given as the source filed them. Rule as the data show it: active = GI50 up to about 1.1 µM and inactive = higher.

These solved cases illustrate the format of a correct answer.
What value of GI50 has been recorded for this entry: CCOC(=O)C1=C(C(=O)OCC)C2c3ccccc3C=CN2C(C(=O)OCC)=C(SC)S1 (stereo not given) 98.4 µM (inactive)

What value of GI50 has been recorded for this entry: COc1ccc([C@@H]2OC(=O)C3C2C(=O)O[C@H]3c2ccc(OC)c(OC)c2)cc1OC (stereo not given in full) > 100 µM (inactive)

// GI50 lookup, key: CCCSc1ccc2[nH]c(/N=C/c3ccco3)cc2c1 29.9 µM (inactive)

GET /values?readout=GI50&item= O=C(O)/C=C/C(=O)O > 100 µM (inactive)

Requested read-out: GI50. Entry: O=C(O)CCCCC1CCSS1 (stereo not given) > 10 µM (inactive)

I would be grateful if you could share the reported GI50 for O=C(c1cc2ccccc2[nH]1)N1C2CCC1CN(CCOC(c1ccc(F)cc1)c1ccc(F)cc1)CC2 (stereo not given) . 18.2 µM (inactive)

Next:
Any idea what GI50 was measured for COC(=O)Cc1c(C2=Nc3ccccc3C2(O)CC(=O)OC)[nH]c2ccccc12 (stereo not given) ? 68.5 µM (inactive)

Entry COc1cc(OC)c2c(c1-c1ccc(C)cc1)CC(C)N(Cc1ccccc1)[C@H]2C (stereo not given in full) : reported GI50 = ? 35.9 µM (inactive)

Would you kindly share the measured GI50 for CCN1C(=S)n2cccc2C1CC(=O)c1ccc(Cl)cc1 (stereo not given) ? > 100 µM (inactive)

Any idea what GI50 was measured for Cc1nnc(N2C(=O)C(=Cc3ccc(Cl)cc3)N=C2c2ccc(Cl)cc2)nc1/C=C\c1ccc(N(C)C)cc1 ? > 100 µM (inactive)

* * *

Below, each entry is listed with its recorded GI50.
System: Hs-578T
assay: NCI tumour cell line growth inhibition, 48 h
The source made the active and inactive calls. Cut-off read from the data, not from the text of the source: active = GI50 up to about 1.1 µM and inactive = higher.

Worked cases, GI50 given:
I would be grateful if you could share the reported GI50 for OCC1OC(NC(=S)NCCC(F)(F)C(F)(F)C(F)(F)C(F)(F)C(F)(F)C(F)(F)F)C(O)C(O)C1O (stereo unspecified) . > 100 µM (inactive)

Please report the recorded GI50 for Cc1cc(C2(c3cc(C)c(O)c(C(=O)O)c3)OS(=O)(=O)c3ccccc32)cc(C(=O)O)c1O . > 100 µM (inactive)

Give the measured GI50 of OCCN(CO)CO . > 100 µM (inactive)

Proceeding to the next molecule to report its GI50.
For the molecule shown here, CC(C)(C)OC(=O)N1CCCC1C(=O)NCCNc1ccc(NCCNC(=O)C2CCCN2C(=O)OC(C)(C)C)c2c1C(=O)c1ccccc1C2=O (stereo unspecified) , give the reported GI50. 18.7 µM (inactive)

* * *

# GI50 per entry
System: UACC-62
assay: NCI tumour cell line growth inhibition, 48 h
Active and inactive are the calls of the source. No stated cut-off is given here; in the data, active = GI50 up to about 1.1 µM and inactive = higher.

Check out these entries, answers already filled in.
For the compound shown here, COc1cccc(C(=O)N[C@@H]2[C@H](O)[C@@H](CO)O[C@H]2n2cnc3c(N)ncnc32)c1 , give the reported GI50. > 100 µM (inactive)

// returns reported GI50 for input CC(C)C1SCc2nc3ccccc3n21 (stereo unspecified) 35.1 µM (inactive)

GI50 for CC(C)C1CC(CO)(CNc2nc(N)nc(Cl)c2C=O)C1 (stereo unspecified) ? 2 µM (inactive)

Which GI50 is listed for O=C1/C(=C/c2ccc(O)cc2)CC/C1=C\c1ccc(O)cc1 ? 13.3 µM (inactive)

Given the entry C=CCN(N=O)C(=O)NCCCCC(NC(C)=O)C(=O)NCc1ccccc1 (stereo unspecified) , report its measured GI50. > 100 µM (inactive)

What does the data say about its GI50? Entry: CC(=O)C(C)CCOC1(C)OCCC1C (stereo unspecified) > 100 µM (inactive)

More entries:
GI50 for COc1cc(C2c3cc4c(cc3[C@@H](Nc3cnc5ccccc5c3)C3COC(=O)[C@H]23)OCO4)cc(OC)c1O (stereo partly specified) ? 0.301 µM (active)

Would you kindly share the measured GI50 for O=C1C(c2ccc(Br)cc2)=[N+]([O-])c2ccccc21 ? 16 µM (inactive)

What does the record list as GI50 for NC(=O)NCCCC(NC(=O)OCCCCn1ccc(=O)[nH]c1=O)C(=O)O (stereo unspecified) ? > 100 µM (inactive)

Item under review: C[S+](C)([O-])=Nn1c(=O)n2n(c1=O)[C@H]1CC[C@@H]2C1 . Reported GI50? > 100 µM (inactive)

Look up GI50 for this compound: OCC(CN1CCCCC1)(CN1CCCCC1)CN1CCCCC1 > 100 µM (inactive)
